target: hNav1.7 (Homo sapiens, UniProt Q15858); construct: expressed in transfected cells; test: Nav1.7 potency, Patchliner automated patch clamp; assay type: cell-based; settings: 0.25 Hz; automated patchclamp; read-out: Nav1.7 IC50 INWARD CURRENT BLOCK (nM) (0.25 Hz, Automated Patchclamp)
Sequence (Q15858 whole entry): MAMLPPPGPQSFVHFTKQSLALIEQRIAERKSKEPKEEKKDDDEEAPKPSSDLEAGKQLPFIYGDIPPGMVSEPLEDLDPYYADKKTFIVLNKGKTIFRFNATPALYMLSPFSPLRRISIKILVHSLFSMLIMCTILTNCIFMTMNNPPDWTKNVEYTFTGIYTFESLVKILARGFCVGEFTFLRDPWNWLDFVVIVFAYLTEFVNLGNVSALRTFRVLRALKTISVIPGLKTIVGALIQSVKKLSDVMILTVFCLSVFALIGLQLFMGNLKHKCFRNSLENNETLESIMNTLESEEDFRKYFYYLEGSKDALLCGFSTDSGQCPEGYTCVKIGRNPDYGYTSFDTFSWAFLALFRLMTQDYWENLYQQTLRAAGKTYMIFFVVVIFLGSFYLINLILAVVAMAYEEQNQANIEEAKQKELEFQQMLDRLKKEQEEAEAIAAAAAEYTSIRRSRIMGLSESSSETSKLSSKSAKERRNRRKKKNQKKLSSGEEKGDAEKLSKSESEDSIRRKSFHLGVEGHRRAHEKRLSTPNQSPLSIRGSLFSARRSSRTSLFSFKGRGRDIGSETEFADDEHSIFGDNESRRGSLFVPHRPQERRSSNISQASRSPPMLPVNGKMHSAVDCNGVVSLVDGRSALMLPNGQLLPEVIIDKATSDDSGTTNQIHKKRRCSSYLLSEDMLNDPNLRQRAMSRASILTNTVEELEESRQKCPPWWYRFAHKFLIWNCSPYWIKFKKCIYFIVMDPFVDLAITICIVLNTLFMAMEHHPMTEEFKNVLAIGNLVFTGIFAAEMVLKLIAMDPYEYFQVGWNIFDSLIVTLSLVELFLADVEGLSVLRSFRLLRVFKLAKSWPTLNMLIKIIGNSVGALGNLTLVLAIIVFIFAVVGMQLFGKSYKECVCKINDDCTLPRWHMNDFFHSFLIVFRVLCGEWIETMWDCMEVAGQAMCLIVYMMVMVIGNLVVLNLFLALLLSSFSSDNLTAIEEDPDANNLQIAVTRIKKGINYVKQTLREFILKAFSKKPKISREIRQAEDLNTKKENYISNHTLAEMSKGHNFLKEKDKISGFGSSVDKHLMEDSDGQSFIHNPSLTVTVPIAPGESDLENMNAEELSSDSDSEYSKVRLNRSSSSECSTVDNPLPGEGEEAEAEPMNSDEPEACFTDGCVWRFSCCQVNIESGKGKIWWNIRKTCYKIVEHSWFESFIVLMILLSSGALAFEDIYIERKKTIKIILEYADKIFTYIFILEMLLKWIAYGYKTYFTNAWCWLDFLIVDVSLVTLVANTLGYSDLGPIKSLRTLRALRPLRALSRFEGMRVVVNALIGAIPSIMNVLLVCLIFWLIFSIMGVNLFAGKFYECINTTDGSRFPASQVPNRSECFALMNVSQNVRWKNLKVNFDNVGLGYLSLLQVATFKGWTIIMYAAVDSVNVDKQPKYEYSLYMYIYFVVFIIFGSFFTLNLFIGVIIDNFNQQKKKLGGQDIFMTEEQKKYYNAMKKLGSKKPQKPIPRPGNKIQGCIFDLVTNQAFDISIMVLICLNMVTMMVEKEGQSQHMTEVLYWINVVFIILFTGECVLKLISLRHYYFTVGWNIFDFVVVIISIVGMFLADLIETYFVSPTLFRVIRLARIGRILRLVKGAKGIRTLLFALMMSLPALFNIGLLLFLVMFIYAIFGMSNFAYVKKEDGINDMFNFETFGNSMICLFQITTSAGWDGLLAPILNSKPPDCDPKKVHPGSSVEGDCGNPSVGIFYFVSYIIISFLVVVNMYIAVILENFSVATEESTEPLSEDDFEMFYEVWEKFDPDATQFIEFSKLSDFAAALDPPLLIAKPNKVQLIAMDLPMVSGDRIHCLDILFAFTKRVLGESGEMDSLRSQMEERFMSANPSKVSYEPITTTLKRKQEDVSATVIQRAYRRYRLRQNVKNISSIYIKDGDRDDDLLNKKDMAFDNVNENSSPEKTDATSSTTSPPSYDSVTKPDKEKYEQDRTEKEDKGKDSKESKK
Sequence (Q07699 19-218 partner): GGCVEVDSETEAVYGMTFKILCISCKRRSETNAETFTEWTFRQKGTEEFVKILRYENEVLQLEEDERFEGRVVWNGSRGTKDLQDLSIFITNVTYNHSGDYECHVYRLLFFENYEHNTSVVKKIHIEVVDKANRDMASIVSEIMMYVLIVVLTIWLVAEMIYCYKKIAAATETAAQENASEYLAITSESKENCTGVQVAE
MEASUREMENT LABEL: IC50 (nM)
Numbers only, in nM.

Qu. Return reported IC50; argument: CN[C@H](CC(C)C)C(=O)NCCOc1cc(F)cc(C(F)(F)F)c1 [Compound 16]
Ans. 15000

* * *

molecular target: human Nav1.7 (Homo sapiens, UniProt Q15858); construct: expressed in transfected cells; assay: Assessment of Nav1.7 activity on PatchXpress (voltage dependence / slow inactivation parameters); assay type: cell-based; conditions: compound at 10 μM; relative to 0.2% DMSO vehicle control
Sequence (Q15858 whole entry): as the sequence (Q15858 whole entry) above
Sequence (Q07699 19-218 partner): as the sequence (Q07699 19-218 partner) above
Everything with hNav1.7: Voltage dependence of activation (mV) VDEP lower than -8 mV is False; everything else, including exactly -8 mV, is True.

Qu. Is reported hNav1.7: Voltage dependence of activation (mV) VDEP greater than or equal to -8 mV here: CC(C)(CC(=O)N1CCNCC1)c1nc2cc(C(F)(F)F)cc(C(F)(F)F)c2[nH]1
Ans. True

New cases:
Qu. Is reported hNav1.7: Voltage dependence of activation (mV) VDEP greater than or equal to -8 mV here: Cc1cccc(C)c1OCC(C)NC(=O)CCN1CCNCC1=O (centres unmarked)
Ans. False

* * *

biological target: human Nav1.7 (Homo sapiens); construct: expressed in transfected cells; assay: Assessment of Nav1.7 activity on PatchXpress (voltage dependence / slow inactivation parameters); assay type: cell-based; settings: compound at 10 μM; before/after 30 sec conditioning pulse at 20 mV; relative to 0.2% DMSO vehicle control
MEASUREMENT LABEL: hNav1.7: Reduction in current at 20 mV (normalized data) Delta Ratio
Numbers only.

Previously resolved entries follow.
Qu. Return reported hNav1.7: Reduction in current at 20 mV (normalized data) Delta Ratio; argument: CC(C)C[C@@H](N)C(=O)N[C@@H](C)COc1cc(C(F)(F)F)cc(C(F)(F)F)c1 [Compound 1]
Ans. −0.30

Qu. Return reported hNav1.7: Reduction in current at 20 mV (normalized data) Delta Ratio; argument: N[C@H](Cc1cccc(C(F)(F)F)c1)C(=O)NCc1nc2ccc(Br)cc2[nH]1 [Compound 74]
Ans. −0.07

Qu. Return reported hNav1.7: Reduction in current at 20 mV (normalized data) Delta Ratio; argument: NCC[C@@H]1Nc2c(cc(C(F)(F)F)cc2C(F)(F)F)NC1=O [Compound 39]
Ans. −0.08

Okay, now this compound:
Qu. Return reported hNav1.7: Reduction in current at 20 mV (normalized data) Delta Ratio; argument: N[C@H](Cc1ccc(F)cc1)Cc1nc2cc(C(F)(F)F)cc(C(F)(F)F)c2[nH]1 [Compound 56]
Ans. −0.21

* * *

Assign IC50 to each entry below.
molecular target: hNav1.7 (Homo sapiens); construct: expressed in transfected cells; assay: Nav1.7 potency, Patchliner automated patch clamp; assay type: cell-based; conditions: 7 Hz; automated patchclamp; read-out: Nav1.7 IC50 INWARD CURRENT BLOCK (nM) (7 Hz, Automated Patchclamp)
One number for each entry, in nM.

Previously resolved entries follow.
Qu. Return reported IC50; argument: CC(C)C[C@@H](N)C(=O)NC(C)COc1cc(C(F)(F)F)cc(C(F)(F)F)c1 (stereo partly drawn) [Compound 6]
Ans. 1660

Qu. Return reported IC50; argument: CN[C@H](CC(C)C)C(=O)NCCOc1cc(F)cc(C(F)(F)F)c1 [Compound 16]
Ans. 9620

Okay, now this molecule:
Qu. Return reported IC50; argument: CC(C)CC(N)C(=O)N[C@@H](C)COc1cc(C(F)(F)F)cc(C(F)(F)F)c1 (stereo partly drawn) [Compound 10]
Ans. 1890

* * *

Assign hNav1.7: Voltage dependence of activation (mV) VDEP to each entry below.
target: human Nav1.7 (Homo sapiens, UniProt Q15858); construct: expressed in transfected cells; test: Assessment of Nav1.7 activity on PatchXpress (voltage dependence / slow inactivation parameters); type: cell-based; settings: compound at 10 μM; relative to 0.2% DMSO vehicle control
Give bare numbers, in mV.

Previously resolved entries follow.
Qu. Return reported hNav1.7: Voltage dependence of activation (mV) VDEP; argument: N[C@H](Cc1cccc(C(F)(F)F)c1)C(=O)NCc1nc2ccc(-c3ccc(F)c(Cl)c3)cc2[nH]1
Ans. −10.5

Qu. Return reported hNav1.7: Voltage dependence of activation (mV) VDEP; argument: CN[C@H](CC(C)C)C(=O)NCCOc1cc(C(F)(F)F)cc(C(F)(F)F)c1
Ans. −5.90

Qu. Return reported hNav1.7: Voltage dependence of activation (mV) VDEP; argument: Cc1cccc(C)c1OCC(C)NC(=O)[C@@H](N)CC(C)C (stereo partly drawn)
Ans. −8.10

Here are 2 compounds. What values of hNav1.7: Voltage dependence of activation (mV) VDEP were reported for them?
1. O=C1CNCCN1CCCc1nc2cc(C(F)(F)F)cc(C(F)(F)F)c2[nH]1
2. Cc1cccc(C)c1OCC(C)NC(=O)CC(=O)NC1CCNCC1 (stereo not drawn)

Ans.
1: −9.2; 2: −6.30

Here are 2 compounds. What values of hNav1.7: Voltage dependence of activation (mV) VDEP were reported for them?
1. CC12CC3CC(C)(C1)CC(NC(=O)CCN)(C3)C2
2. O=C(CCc1nc2cc(C(F)(F)F)cc(C(F)(F)F)c2[nH]1)N1CCNCC1

Ans.
1. −7.90
2. −11.3

Here are 2 compounds. What values of hNav1.7: Voltage dependence of activation (mV) VDEP were reported for them?
1. O=C1CNCCN1Cc1cc(C(F)(F)F)cc(C(F)(F)F)c1
2. O=C1CNCCN1CCCc1nc2cc(F)cc(F)c2[nH]1

Ans.
1. −5
2. −11.6

* * *

Target: human Nav1.7 (Homo sapiens, UniProt Q15858)
Construct: expressed in transfected cells
Test: Assessment of Nav1.7 activity on PatchXpress (voltage dependence / slow inactivation parameters)
Format: cell-based
Conditions: compound at 10 μM; before/after 30 sec conditioning pulse at 20 mV; relative to 0.2% DMSO vehicle control
Text: The generation of a HEK 293F cell line stably expressing human Nav1.7/Navp1 was achieved by co-transfecting human SCN9A and human SCN1B cDNAs, subcloned into plasmid vectors, utilizing standard transfection techniques. […]
MEASUREMENT LABEL: hNav1.7: Reduction in current at 20 mV (normalized data) Delta Ratio
Give bare numbers.

Qu. Return reported hNav1.7: Reduction in current at 20 mV (normalized data) Delta Ratio; argument: Cc1cccc(C)c1OCC(C)NC(=O)C(C)(C)N1CCNCC1=O (centres unmarked)
Ans. −0.09

Qu. Return reported hNav1.7: Reduction in current at 20 mV (normalized data) Delta Ratio; argument: CC1(c2cc(C(F)(F)F)cc(C(F)(F)F)c2)NC(=O)NC1=O (centres unmarked)
Ans. 0.02

Qu. Return reported hNav1.7: Reduction in current at 20 mV (normalized data) Delta Ratio; argument: O=C(NCCOc1cc(C(F)(F)F)cc(C(F)(F)F)c1)[C@H]1CCCN1
Ans. −0.20

Qu. Return reported hNav1.7: Reduction in current at 20 mV (normalized data) Delta Ratio; argument: N[C@@H](c1ccc(Cl)cc1)c1nc2cc(C(F)(F)F)cc(C(F)(F)F)c2[nH]1
Ans. −0.26

Qu. Return reported hNav1.7: Reduction in current at 20 mV (normalized data) Delta Ratio; argument: O=C(CCc1nc2cc(C(F)(F)F)cc(C(F)(F)F)c2[nH]1)N1CCNCC1
Ans. −0.19

Qu. Return reported hNav1.7: Reduction in current at 20 mV (normalized data) Delta Ratio; argument: CC(C)CC(N)C(=O)N[C@H](C)COc1cc(C(F)(F)F)cc(C(F)(F)F)c1 (some centres unmarked)
Ans. −0.26

Qu. Return reported hNav1.7: Reduction in current at 20 mV (normalized data) Delta Ratio; argument: CC(C)(C)OC(=O)N[C@H](Cc1cccc(C(F)(F)F)c1)C(=O)NCc1nc2ccc(Br)cc2[nH]1
Ans. −0.07

Okay, now this compound:
Qu. Return reported hNav1.7: Reduction in current at 20 mV (normalized data) Delta Ratio; argument: FC(F)(F)c1cc(C(F)(F)F)c2nc([C@H]3CCCCN3)[nH]c2c1
Ans. 0.02

* * *

molecular target: human Nav1.7 (Homo sapiens); construct: expressed in transfected cells; assay: Assessment of Nav1.7 activity on PatchXpress (voltage dependence / slow inactivation parameters); type: cell-based; conditions: compound at 10 μM; relative to 0.2% DMSO vehicle control
Recorded hNav1.7: Voltage dependence of activation (mV) VDEP split into classes lo (below -8 mV), med (-8 mV to below -6 mV), hi (-6 mV or more)

Some solved cases for reference:
Qu. Determine which band this compound sits in: CC(C)(CC(=O)N1CCNCC1)c1nc2cc(F)cc(F)c2[nH]1 [Compound 67]
Ans. lo

Qu. Determine which band this compound sits in: O=C(CN1CCNCC1=O)NCC(F)(F)F [Compound 47]
Ans. lo

Qu. Determine which band this compound sits in: FC(F)(F)c1cc(C(F)(F)F)c2[nH]c(C3NCc4ccccc43)nc2c1 (stereo not shown) [Compound 59]
Ans. lo

Qu. Determine which band this compound sits in: O=C(NC12CC3CC(CC(C3)C1)C2)[C@@H]1CCCN1 [Compound 45]
Ans. hi

Qu. Determine which band this compound sits in: CC(C)CC(N)C(=O)N[C@@H](C)COc1cc(C(F)(F)F)cc(C(F)(F)F)c1 (stereo partly shown) [Compound 10]
Ans. hi

New cases:
Qu. Determine which band this compound sits in: CC(=O)N1CCC(NC(=O)Nc2ccc(OC(F)(F)F)cc2)CC1 [Compound 50]
Ans. lo

Qu. Determine which band this compound sits in: FC(F)(F)c1cc(C(F)(F)F)c2nc([C@H]3CCCCN3)[nH]c2c1 [Compound 84]
Ans. med

Qu. Determine which band this compound sits in: O=C(NCCc1c[nH]c2ccc(F)cc12)[C@@H]1CCCN1 [Compound 48]
Ans. hi

Qu. Determine which band this compound sits in: C[C@@H](NC(=O)[C@@H]1CCCN1)c1ccc(OCC(F)(F)F)cn1 [Compound 82]
Ans. hi

Qu. Determine which band this compound sits in: CC1(c2cc(C(F)(F)F)cc(C(F)(F)F)c2)NC(=O)NC1=O (stereo not shown) [Compound 42]
Ans. med

Qu. Determine which band this compound sits in: N[C@H](c1ccccc1)c1nc2cc(C(F)(F)F)cc(C(F)(F)F)c2[nH]1 [Compound 57]
Ans. hi
